assay: replicating M. tuberculosis growth inhibition, dose response, non-replicating M. tuberculosis project, H37Rv (AID 492952); conditions: series mostly up to 50 µM;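 also: Mycobacterium tuberculosis grown in culture; growth inhibition read after a week of incubation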
Hit rate of the full screen: of about 2,300 compounds, about 1,500 (65%) were called active. The set was probably picked from earlier hits. Some of the results follow. Results with a measured potency or affinity are listed apart.
metric: outcome

Solved cases (6 shown):
compound	outcome
CCn1c(O)c(C(=O)CC2NCCc3ccccc32)c(=O)n(CC)c1=S (stereo not given)	inactive
CCOc1ccc(NC(=O)CCNC(=O)c2ccc(Br)cc2)cc1	inactive
O=C(COC(=O)CC12CC3CC(CC(C3)C1)C2)Nc1cccnc1Cl	inactive
CCOC(=O)c1ccsc1NC(=O)CCS(=O)(=O)c1ccccc1	inactive
CC(C)c1cc(C(=O)N/N=C/C=C/c2ccccc2)n[nH]1	inactive
Cc1cc(C)cc(NC(=O)COC(=O)CC2CCCC2)c1	inactive

Please state, for each entry, its recorded outcome.
1. COc1cccc(NC(=O)c2ccc(C(=O)c3ccccc3)o2)c1
2. Cc1cc(C)c2sc(NC(=O)C3=COCCO3)nc2c1

A.
inactive
inactive

Each compound below has a reported value. Please supply its outcome.
1. Cc1nnc(C)n1/N=C/c1cc(Br)cc(Br)c1O
2. O=C(NNC(=O)C12CC3CC(CC(C3)C1)C2)c1cnccn1
3. O=C(NCCSc1ccccc1)c1ccc(Br)cc1
4. COc1ccc(-n2c3c(cc(C(=O)NNc4ccccc4)c2=O)C(=O)CC(C)(C)C3)cc1
5. O=C(CCSc1ccccc1)N1CCCC1
6. CCCCCCCCCCn1cc(C(C)=O)c(=O)[nH]c1=O
7. CC(C)CCC1=NN(C(=O)c2ccco2)C(O)(C(F)(F)F)C1 (stereo not given)

A.
1. inactive
2. inactive
3. inactive
4. inactive
5. inactive
6. inactive
7. inactive

###

assay: replicating M. tuberculosis growth inhibition, dose response, non-replicating M. tuberculosis project, H37Rv (AID 492952); details: series mostly up to 50 µM;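 also: Mycobacterium tuberculosis grown in culture; growth inhibition read after a week of incubation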
Among all 2,300 compounds or so, about 1,500 (65%) were called active. The set was probably picked from earlier hits. This is one part of the list. Entries with a potency or affinity are not part of this list.
metric: outcome

# count of solved cases: 4
compound	outcome
Cc1cccc(C)c1NC(=O)c1sc(N)nc1-c1ccccc1	inactive
CCc1nnc(N/N=C/c2c(F)cccc2Cl)n1N	inactive
O=C(CC1CCCCC1)NCc1ccccc1	inactive
CC(C)c1ccc(N2C(=O)CC(Sc3ncn[nH]3)C2=O)cc1 (stereo unspecified)	inactive

Batch request: outcome per item, same order as input.
1. CC1CC(C)CN(CCOCCSc2ccc(Cl)cc2)C1 (stereo unspecified)
2. Cc1cc(OCCOCCNCc2ccccc2)ccc1C(C)C
3. C/C(=N\NC(=O)COc1cccc(C)c1)c1ccc2ccccc2c1O
4. Cc1ccc2nc3c(c(N)c2c1)CCN3c1ccccc1
5. Nc1cccn2c(-c3ccc(Cl)cc3)cnc12
6. C=C(C)C1Cc2cc3ccc(=O)oc3cc2O1 (stereo unspecified)

A.
1. inactive
2. inactive
3. inactive
4. inactive
5. inactive
6. inactive

For each entry beneath this line, provide reported outcome.
1. Oc1ccccc1Nc1nc(NCC2CCCO2)c2ccccc2n1 (stereo unspecified)
2. COCCNC(=O)CC(=O)N/N=C/c1cccc(C(=O)OC)c1
3. CC(C)c1ccc(OCC(=O)NCc2ccccc2)cc1
4. Cc1ccc(C(=O)CCNc2ccc(Br)cc2)o1

A.
["inactive", "inactive", "inactive", "inactive"]

Hi team, please reply with outcome for each item in this list.
1. CCOC(=O)NC(=O)COC(=O)CCCSc1nc2ccccc2s1
2. O=[N+]([O-])c1ccc(CSc2nnc(-c3cccnc3)o2)cc1
3. COc1ccc(NC(=O)CO/N=C2/CCCc3nonc32)c(OC)c1
4. Cc1ccc(CC(=O)Nc2ccc(Cl)cn2)cc1
5. Nc1nnc(SCCCC(=O)c2ccc(Br)cc2)s1
6. Cc1ccc(C(=O)N/N=C\c2ccc[nH]2)cn1

A.
1. inactive
2. inactive
3. inactive
4. inactive
5. inactive
6. inactive

Record outcome per entry; entries follow.
1. N#Cc1cc(N)ccc1-n1cccc1
2. Cc1ccc(NC(=O)C2CC2c2ccccc2)cc1 (stereo unspecified)
3. O=C(COC(=O)c1ccccc1)NCc1cccs1
4. CC(=O)N1CCN(C(=O)CC2OC(=O)c3ccccc32)CC1 (stereo unspecified)
5. COc1ccc(S(=O)(=O)N(C(C)=O)c2ccc(OC(C)=O)c3ccccc23)cc1[N+](=O)[O-]
6. Cc1cc(C=C2C(=O)N(C)C(=S)N(C)C2=O)c(C)n1-c1cccnc1
7. COc1ccc2c3c(cccc13)OCC2=O
8. COc1cc(NC(=O)N2CCOCC2)cc(OC)c1

A.
1: inactive; 2: inactive; 3: inactive; 4: inactive; 5: inactive; 6: inactive; 7: inactive; 8: inactive
